Experiment: Oral bioavailability in mouse
Assay type: ADME, organism-based
Conditions: in vivo
quantity measured: bioavailability (%)
Answer with a number only, understood to be in %.

Query: # query: bioavailability of entry `CNC(=O)Nc1ccc2c(c1)CC[C@@]21OC(=O)N(CC(=O)N(Cc2ccccc2)[C@@H](C)C2CC2)C1=O`
Response: 40
